- ASSAYED_TARGET: GABAA α1β2γ2 (Homo sapiens, UniProt P14867+P18507+P47870)
- Construct: expressed in transfected cells; host or cells: HEK293
- Sequence (P14867 28-456): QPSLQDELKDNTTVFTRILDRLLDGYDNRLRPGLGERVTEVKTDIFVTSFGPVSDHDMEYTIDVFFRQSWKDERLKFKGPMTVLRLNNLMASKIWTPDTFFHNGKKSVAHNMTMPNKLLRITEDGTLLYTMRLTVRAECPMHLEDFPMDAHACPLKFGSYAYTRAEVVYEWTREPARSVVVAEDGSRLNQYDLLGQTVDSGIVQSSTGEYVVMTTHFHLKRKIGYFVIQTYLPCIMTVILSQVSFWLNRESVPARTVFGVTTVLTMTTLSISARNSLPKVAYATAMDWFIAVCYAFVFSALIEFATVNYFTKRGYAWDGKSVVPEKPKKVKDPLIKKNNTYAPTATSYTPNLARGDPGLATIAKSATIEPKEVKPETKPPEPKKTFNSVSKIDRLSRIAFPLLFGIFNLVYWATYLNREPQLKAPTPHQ
- Sequence (P47870 25-512 limits assumed): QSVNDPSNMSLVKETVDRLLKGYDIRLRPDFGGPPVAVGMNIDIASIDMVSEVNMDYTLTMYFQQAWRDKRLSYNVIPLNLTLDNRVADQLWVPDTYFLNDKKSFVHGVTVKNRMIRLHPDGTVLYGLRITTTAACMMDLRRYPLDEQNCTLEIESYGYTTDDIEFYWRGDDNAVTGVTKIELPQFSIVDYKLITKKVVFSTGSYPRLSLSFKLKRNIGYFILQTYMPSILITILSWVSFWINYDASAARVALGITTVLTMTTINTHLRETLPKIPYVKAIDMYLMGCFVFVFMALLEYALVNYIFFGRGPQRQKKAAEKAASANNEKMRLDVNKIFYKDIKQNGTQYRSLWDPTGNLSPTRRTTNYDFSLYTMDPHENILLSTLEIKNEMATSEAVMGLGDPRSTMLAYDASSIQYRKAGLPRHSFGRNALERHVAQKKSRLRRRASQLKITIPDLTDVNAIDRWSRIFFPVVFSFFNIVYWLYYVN
- Sequence (P18507 40-475): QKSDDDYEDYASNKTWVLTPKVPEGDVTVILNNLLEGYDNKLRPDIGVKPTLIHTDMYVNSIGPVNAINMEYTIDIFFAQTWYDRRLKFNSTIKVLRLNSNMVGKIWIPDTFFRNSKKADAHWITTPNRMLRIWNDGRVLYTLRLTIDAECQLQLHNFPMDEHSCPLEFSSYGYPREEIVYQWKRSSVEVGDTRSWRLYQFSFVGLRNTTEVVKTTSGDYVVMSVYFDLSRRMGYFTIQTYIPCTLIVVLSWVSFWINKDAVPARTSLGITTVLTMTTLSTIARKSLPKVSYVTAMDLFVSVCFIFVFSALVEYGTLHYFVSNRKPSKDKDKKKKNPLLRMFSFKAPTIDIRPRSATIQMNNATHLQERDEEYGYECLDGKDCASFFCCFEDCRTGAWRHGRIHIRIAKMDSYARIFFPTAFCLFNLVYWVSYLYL
- TEST_NAME: 35S-TBPS binding assay, HEK293 membranes with GABAA α1β2γ2 construct
- ASSAY_CONTEXT: 35S-TBPS 5 nM, GABA 1 μM, 2 hours at room temperature, read-out: α1β2γ2 (35S-TBPS binding, pIC50) (converted)
Doc: threshold 3 µM (exclusive). Items with IC50 beneath it return T; others return F.

INSERT INTO assay_data (compound, assayed_target, qualitative_label) VALUES
  ('Cn1nc2c(-c3ccc(Cl)cc3Cl)cccc2c1Cc1nnn(CS(C)(=O)=O)n1 [I-12]', 'GABAA α1β2γ2 (Homo sapiens, UniProt P14867+P18507+P47870)', 'T'),
  ('Cn1nnc(-c2c3cccc(-c4ccc(Cl)cc4Cl)c3nn2C)n1 [I-52]', 'GABAA α1β2γ2 (Homo sapiens, UniProt P14867+P18507+P47870)', 'F'),
  ('Cn1nc2c(-c3ccc(Cl)cc3Cl)cccc2c1Cn1cncn1 [I-42]', 'GABAA α1β2γ2 (Homo sapiens, UniProt P14867+P18507+P47870)', 'F'),
  ('Cn1nc2c(-c3ccc(Cl)cc3Cl)cccc2c1N1C(=O)CCC1=O [I-44]', 'GABAA α1β2γ2 (Homo sapiens, UniProt P14867+P18507+P47870)', 'F'),
  ('Cn1nc2c(-c3ccc(Cl)cc3Cl)cccc2c1Cn1ccnn1 [I-16]', 'GABAA α1β2γ2 (Homo sapiens, UniProt P14867+P18507+P47870)', 'F'),
  ('Cn1nc2c(-c3ccc(Cl)cc3Cl)cccc2c1Cn1ccnc1 [I-40]', 'GABAA α1β2γ2 (Homo sapiens, UniProt P14867+P18507+P47870)', 'F'),
  ('Cn1nnnc1C(O)c1c2cccc(-c3ccc(Cl)cc3Cl)c2nn1C (stereo not drawn) [I-32]', 'GABAA α1β2γ2 (Homo sapiens, UniProt P14867+P18507+P47870)', 'F'),
  ('Cn1nc2c(-c3ccc(Cl)cc3Cl)cccc2c1C1=NCCO1 [I-48]', 'GABAA α1β2γ2 (Homo sapiens, UniProt P14867+P18507+P47870)', 'F'),
  ('Cn1nc2c(-c3ccc(Cl)cc3Cl)cccc2c1Cn1ncnn1 [I-49]', 'GABAA α1β2γ2 (Homo sapiens, UniProt P14867+P18507+P47870)', 'T'),
  ('CCOC(c1cnc[nH]1)c1c2cccc(-c3ccc(Cl)cc3Cl)c2nn1C (stereo not drawn) [I-26]', 'GABAA α1β2γ2 (Homo sapiens, UniProt P14867+P18507+P47870)', 'F'),
  ('Cn1nc2c(-c3ccc(Cl)cc3Cl)cccc2c1C(O)c1cnc[nH]1 (stereo not drawn) [I-27]', 'GABAA α1β2γ2 (Homo sapiens, UniProt P14867+P18507+P47870)', 'T'),
  ('Cn1nc2c(-c3ccc(Cl)cc3Cl)cccc2c1Cc1nnnn1CCO [I-10]', 'GABAA α1β2γ2 (Homo sapiens, UniProt P14867+P18507+P47870)', 'F'),
  ('Cn1nc2c(-c3ccc(Cl)cc3Cl)cccc2c1Cc1nnnn1CS(C)(=O)=O [I-9]', 'GABAA α1β2γ2 (Homo sapiens, UniProt P14867+P18507+P47870)', 'F'),
  ('Cn1nc2c(-c3ccc(Cl)cc3Cl)cccc2c1C(O)c1ncc[nH]1 (stereo not drawn) [I-28]', 'GABAA α1β2γ2 (Homo sapiens, UniProt P14867+P18507+P47870)', 'T'),
  ('Cn1nc2c(-c3ccc(Cl)cc3Cl)cccc2c1Cn1cnnn1 [I-43]', 'GABAA α1β2γ2 (Homo sapiens, UniProt P14867+P18507+P47870)', 'F'),
  ('Cn1nc2c(-c3ccc(Cl)cc3Cl)cccc2c1CCc1ncn[nH]1 [I-34]', 'GABAA α1β2γ2 (Homo sapiens, UniProt P14867+P18507+P47870)', 'F'),
  ('Cn1nc2c(-c3ccc(Cl)cc3Cl)cccc2c1Cc1cnc[nH]1 [I-25]', 'GABAA α1β2γ2 (Homo sapiens, UniProt P14867+P18507+P47870)', 'F'),
  ('Cn1nc2c(-c3ccc(Cl)cc3Cl)cccc2c1-c1ncc[nH]1 [I-45]', 'GABAA α1β2γ2 (Homo sapiens, UniProt P14867+P18507+P47870)', 'F'),
  ('Cn1nc2c(-c3ccc(Cl)cc3Cl)cccc2c1C(=O)c1nnn[nH]1 [I-18]', 'GABAA α1β2γ2 (Homo sapiens, UniProt P14867+P18507+P47870)', 'T');
